Origin of the recorded values: paper PMC7156458

- assay system: Aβ42 (Homo sapiens)
- protocol summary: Th-T (thioflavin-T) assay of Aβ42 aggregation
- Type: biochemical
- measurement setup: concentration 20, unit not given; time-course reading M143
readout name: Th-T fluorescence of Aβ42 with compound, mean of three wells (Fig. 7a source data)
Enter the number alone.

Example results:
compound | value observed
C=C1CC[C@@H]2[C@](C)(CC[C@H]3O[C@H](C=C(C)C)C[C@@]23C)[C@@H]1Cc1c(OC)oc(CO)c(C(=O)OC)c1=O | 0.9558
C=C1CCC2C(C)(CCC=C(C)C)C(O)CCC2(C)C1Cc1c(OC)oc(CO)c(C(=O)OC)c1=O (centres unmarked) | 1.022
C=C1CCC2C(C)(CCC=C(C)C)C(O)CCC2(C)C1Cc1c(OC)oc(CO)c(C)c1=O (centres unmarked) | 2.219
C=C1CC[C@@H]2[C@](C)(CC[C@H]3O[C@H](C=C(C)C)C[C@@]23C)[C@@H]1Cc1c(OC)oc(CO)c(C)c1=O | 3.013

# evaluate next
[ask] Using the record for C=C1CCC2C(C)(CCC=C(C)C)C(O)CCC2(C)C1Cc1c(OC)oc(C)c(C(=O)OC)c1=O (centres unmarked) , report its Th-T fluorescence of Aβ42 with compound, mean of three wells (Fig. 7a source data).
[reply] 1.575

###

- assay system: Aβ42 (Homo sapiens)
- protocol summary: Th-T (thioflavin-T) assay of Aβ42 aggregation
- Format: biochemical
- measurement setup: column suffix _50; measurement M23
Entries and their Th-T fluorescence, mean of three wells (Fig. 7a)
Enter the number alone.

[ask] Using the record for C=C1CC[C@@H]2[C@](C)(CC[C@H]3O[C@H](C=C(C)C)C[C@@]23C)[C@@H]1Cc1c(OC)oc(CO)c(C)c1=O [Compound 20] , report its Th-T fluorescence, mean of three wells (Fig. 7a).
[reply] 2.205

###

Entries and their Th-T assay signal, mean of three wells (Fig. 7a)
- assay system: UniProtKB P05067
- protocol summary: Th-T (thioflavin-T) assay of Aβ42 aggregation
- Format: biochemical
- measurement setup: column suffix _20; reading M3
Enter the number alone.

compound | value observed
C=C1CCC2C(C)(CCC=C(C)C)C(O)CCC2(C)C1Cc1c(OC)oc(C)c(C(=O)OC)c1=O (centres unmarked) | 0.2803
C=C1CC[C@@H]2[C@](C)(CC[C@H]3O[C@H](C=C(C)C)C[C@@]23C)[C@@H]1Cc1c(OC)oc(CO)c(C)c1=O | 0.2688
C=C1CCC2C(C)(CCC=C(C)C)C(O)CCC2(C)C1Cc1c(OC)oc(CO)c(C)c1=O (centres unmarked) | 0.3699
C=C1CC[C@@H]2[C@](C)(CC[C@H]3O[C@H](C=C(C)C)C[C@@]23C)[C@@H]1Cc1c(OC)oc(CO)c(C(=O)OC)c1=O | 0.2155

[ask] Provide value of Th-T assay signal, mean of three wells (Fig. 7a) for this record tested with UniProtKB P05067: C=C1CCC2C(C)(CCC=C(C)C)C(O)CCC2(C)C1Cc1c(OC)oc(CO)c(C(=O)OC)c1=O (centres unmarked)
[reply] 0.2279

###

- assay system: Aβ42 (Homo sapiens, UniProt P05067)
- Sequence (P05067 672-713): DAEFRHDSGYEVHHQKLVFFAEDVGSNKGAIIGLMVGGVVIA
- protocol summary: Th-T (thioflavin-T) assay of Aβ42 aggregation
- Assay type: biochemical
- measurement setup: Aβ42 aggregation time course, reading M120
readout name: Th-T fluorescence, mean of three wells
Enter the number alone.

[ask] Provide value of Th-T fluorescence, mean of three wells for this record tested with Aβ42 (Homo sapiens, UniProt P05067): `C=C1CC[C@H]2[C@]3(C)C[C@H](C=C(C)C)O[C@H]3CC[C@]2(C)[C@@H]1Cc1c(OC)oc(C)c(C)c1=O`
[reply] 3.905

[ask] Provide value of Th-T fluorescence, mean of three wells for this record tested with Aβ42 (Homo sapiens, UniProt P05067): C=C1CCC2C(C)(CCC=C(C)C)C(O)CCC2(C)C1Cc1c(O)c(C)c(C)oc1=O (stereo not shown) [Compound 4]
[reply] 2.773

[ask] Provide value of Th-T fluorescence, mean of three wells for this record tested with Aβ42 (Homo sapiens, UniProt P05067): C=C1CCC2C(C)(CC(=O)C=C(C)C)C(O)CCC2(C)C1Cc1c(O)c(C)c(C)oc1=O (stereo not shown)
[reply] 3.485

[ask] Provide value of Th-T fluorescence, mean of three wells for this record tested with Aβ42 (Homo sapiens, UniProt P05067): `CC(C)=CCC/C(C)=C/CC/C(C)=C/CC/C(C)=C/Cc1c(O)c(C)c(C)oc1=O`
[reply] 2.963
